All figures here come from PubChem BioAssay.

Target: Alpha-2C adrenergic receptor (Homo sapiens) (UniProt P18825)
Sequence (P18825 whole entry, looked up): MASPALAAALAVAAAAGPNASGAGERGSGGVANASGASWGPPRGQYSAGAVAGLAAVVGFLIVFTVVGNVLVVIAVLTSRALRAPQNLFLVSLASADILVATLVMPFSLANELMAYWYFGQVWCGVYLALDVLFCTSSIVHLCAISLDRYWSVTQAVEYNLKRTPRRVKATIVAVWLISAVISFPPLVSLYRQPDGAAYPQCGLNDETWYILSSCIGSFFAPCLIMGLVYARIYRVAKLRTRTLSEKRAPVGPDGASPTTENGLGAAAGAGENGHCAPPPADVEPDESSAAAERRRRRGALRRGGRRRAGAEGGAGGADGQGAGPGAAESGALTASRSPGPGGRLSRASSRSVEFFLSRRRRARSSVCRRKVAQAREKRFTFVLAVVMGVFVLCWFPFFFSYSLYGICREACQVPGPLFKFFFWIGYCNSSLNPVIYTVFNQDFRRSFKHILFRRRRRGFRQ
Test: modulators of alpha2C/GIRK thallium flux, primary screen, cell-based, HEK293 alpha2C/GIRK1/2 (AID 624);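 also: slope of fluorescence ratio to pre-addition baseline per second over 15 to 24 s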
Details: thallium flux BTC fluorescence, at 10 µM, actives lie on both sides
OUTCOME_MEASURE: slope

>>> print(df.to_string())
                                    compound  outcome_measure  meas_value
 0  CC(=O)Nc1ccc(S(=O)(=O)NCc2cn3c(C)csc3n2)cc1            slope     0.00529
 1             CCOc1ncccc1C(=O)Nc1ccc(Cl)cc1            slope      0.0068
 2  CCOC(=O)c1ccc(NC(=O)CCc2nc(-c3cccc(C)c3)no2)cc1            slope     0.00651
 3  COc1cccc(-c2csc3nnc(SCC(=O)c4ccc(NC(C)=O)cc4)n23)c1            slope     0.00779
 4  O=C1CC(C2CCCO2)C(=O)N1Cc1ccccc1 (centres undefined)            slope     0.00667
 5                  CCCCc1nccn1CCn1ccnc1CCCC            slope     0.00472
 6                        Cn1c(Cl)nc2ccccc21            slope     0.00423
 7  Cn1c(SCC(=O)Nc2ccc3c(c2)OCO3)nnc1-c1cnccn1            slope     0.00395
 8  CCN1CCN(C(=O)c2oc(=O)c3ccccc3c2-c2ccc(C)cc2)CC1            slope     0.00617
 9               O=P(O)(CCc1ccccc1)CN1CCCCC1            slope     0.00723
10  CC(C)COC(=O)N(C)c1ccc(C(O)(C(F)(F)F)C(F)(F)F)cc1            slope     0.00749
11  Oc1c(C(c2ccccc2)N2CCc3ccccc3C2)sc2ncnn12 (centres undefined)            slope     0.00688
12  CC(C)OC(=O)CSc1nnc(-c2ccccn2)n1-c1ccccc1            slope     0.00479
13     O=C(OCC(=O)N1CCCC1)c1ccccc1OCc1ccccc1            slope     0.00498
14   O=C(/C=C1\NC2(CCCC2)Cc2ccccc21)N1CCOCC1            slope     0.00501
15  COc1ccc(N2CCN(CCCNS(=O)(=O)c3c(C)noc3/C=C/N(C)C)CC2)cc1            slope     0.00583
16  Cc1ccc(S(=O)(=O)N2CCN(S(=O)(=O)N(C)C)CC2)cc1            slope     0.00563
17  CN1CCN(Cc2nc3c(c(=O)[nH]c(=O)n3C)n2CCc2ccccc2)CC1            slope     0.00646
18  O=C(Cn1cnc2c(nnn2-c2ccc(F)cc2)c1=O)N1CCCc2ccccc21            slope     0.00588
19          NC(=O)NC(=O)CSc1cccc(C(F)(F)F)c1            slope     0.00622
20  COCC(=O)N(c1ccc(C(C)C)cc1)C1C=CS(=O)(=O)C1 (centres undefined)            slope     0.00672
21  CCOC(=O)c1c(NC(=O)COC(=O)c2c(C)noc2C)sc2c1CCC2            slope      0.0054
22  CCOC(=O)Nc1ccc2c(c1)N(C(=O)OCCN(C)C)c1ccccc1CC2            slope     0.00722
23  CCOCCCNC(=O)C1CCCN(S(=O)(=O)CC)C1 (centres undefined)            slope     0.00421

----------
Assay: inhibitors of mutant huntingtin aggregation, primary screen, imaging, exon1htt(103Q)mCFP cells, high-content imaging (AID 483);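 also: compound exposure lasted 3 days before fixation; percent of the per-plate median nuclei count of sample wells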
Settings: exon1htt(103Q)mCFP cell line, aggregate imaging, at 2 µM; measured here: cell count, toxicity
OUTCOME_MEASURE: nuclei count (%)

                                   compound  outcome_measure  uom  meas_value
0                    O=C(NCc1ccccn1)c1cccs1     nuclei count    %        91.4
1  O=C(C1CCN(c2nnnn2-c2ccccc2)CC1)N1CCN(c2ccccc2)CC1     nuclei count    %        98.3
2  COc1ccc(S(=O)(=O)N2CCCC2C(=O)Nc2ccc(C)cc2)cc1 (stereo unspecified)     nuclei count    %         130
3  CCCCCc1c(C)nc(Nc2nc(C)c3cc(OC)ccc3n2)[nH]c1=O     nuclei count    %        84.7
4  CC1CN(c2nc(-c3ccccc3)nc3ccccc23)CC(C)O1 (stereo unspecified)     nuclei count    %        99.3
5  O=C(CN(c1ccc(F)cc1)S(=O)(=O)c1ccc2c(c1)OCCO2)Nc1ccc2c(c1)OCO2     nuclei count    %         105

----------
compounds and their reported nuclei count
Assay: inhibitors of E-selectin induction by TNFa, primary screen, imaging, HUVEC, immunofluorescence, MLSMR starter and 10KST1 sets (AID 487);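 also: 100% = median nuclei count of all wells on the same plate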
Settings: HUVEC TNFalpha-induced E-selectin immunofluorescence imaging, at 2 µM; measured here: cell number, toxicity
OUTCOME_MEASURE: nuclei count (%)

>>> print(df.to_string())
                                    compound  outcome_measure  uom  meas_value
 0  COc1cccc(C2C(C(=O)c3sc(C)nc3C)=C(O)C(=O)N2CCN2CCOCC2)c1OC (centres undefined)     nuclei count    %         140
 1          CC(=O)Nc1cc(N2C(=O)CCC2=O)ccc1Cl     nuclei count    %         110
 2  CC(C)C(NC(=O)c1ccco1)C(=O)NCC(c1ccco1)N1CCCCC1 (centres undefined)     nuclei count    %        97.7
 3  Cc1ccc(-n2c(=O)c(C#N)cc3c(=O)n4ccccc4nc32)cc1     nuclei count    %         102
 4  CC1CCCN(S(=O)(=O)c2coc(C(N)=O)c2)C1 (centres undefined)     nuclei count    %        95.6
 5             Nc1nc2ccccc2n1C(=O)CCc1ccccc1     nuclei count    %         125
 6  CCOc1ccc(Nc2nc(Cc3nnc(SCC(N)=O)o3)cs2)cc1     nuclei count    %         154
 7       CCCc1cc(NCCCCO)n2c(nc3ccccc32)c1C#N     nuclei count    %         112
 8  CCOC(=O)C1(CC)NC(c2cccc(F)c2)C2C(=O)N(CC)C(=O)C21 (centres undefined)     nuclei count    %        70.2
 9  Cn1c(OCc2cccnc2)nc2c1c(=O)n(Cc1ccc(Br)cc1)c(=O)n2C     nuclei count    %         172
10  O=C(CCS(=O)(=O)c1cccc2nonc12)Nc1cccc2c1CCCC2     nuclei count    %         114
11  CN1CCN(Cc2c(O)c(Cl)cc3c(-c4ccccc4)cc(=O)oc23)CC1     nuclei count    %         108
12             O=C(Nc1ccccn1)c1ccc(=O)[nH]n1     nuclei count    %         134
13  CCn1c(SCC(=O)Nc2cc(C)ccc2C)nc2c(c1=O)SC(C)C2 (centres undefined)     nuclei count    %         110
14  CCN(CC)CCCN1C(=O)C(=O)/C(=C(/O)c2ccc(OC)cc2)C1c1ccco1 (centres undefined)     nuclei count    %         185
15                  O=C(CCc1ccccc1)Nc1ccncc1     nuclei count    %         118
16         CCCCOC(=O)c1[nH]c(C)c(C(=O)OC)c1C     nuclei count    %        98.7
17  CCOC(=O)c1sc(NC(=O)C2CC=CCC2C(=O)O)nc1C (centres undefined)     nuclei count    %         105
18          Cc1nc2ccc(C(=O)c3ccccc3)cc2[nH]1     nuclei count    %         105
19               CSc1nc2sc3c(c2c2nncn12)CCC3     nuclei count    %         148
20  CCC(=O)Nc1c(C#N)c2nc3ccccc3nc2n1C1CCCCC1     nuclei count    %        99.6
21         CC1CCN(Cc2ccc(-c3nn[nH]n3)cc2)CC1     nuclei count    %        90.6
22  COc1cc(N2CCCC2)c(OC)cc1/C=c1/sc2nc3ccccc3n2c1=O     nuclei count    %         155
23  CC(C)Cn1c(CN2CCN(c3ccccc3F)CC2)nc2c1c(=O)[nH]c(=O)n2C     nuclei count    %         103
